test system: SK-MEL-28 melanoma; assay: NCI-60 one-dose screen, 48 h (100 = growth as untreated, 0 = no growth, -100 = all killed); conditions: 10 µM unless noted
This is part of a sample that, as a whole, favours compounds with a hit. Of some 83,000 tested, about 20% had one in any assay.
// NB: equality with 30% counts as Not fulfilled; only growth strictly below is Fulfilled

Some solved entries appear below for comparison.
O=C(Nc1ccc(N=Cc2c(O)[nH]c3ccccc23)cc1)Nc1nccs1	Not fulfilled
N#Cc1cnc2ccc(-c3cnc4[nH]ncc4c3)cc2c1N1CCc2cc(F)c(Cl)cc21	Not fulfilled
O=S(=O)(NCCCNc1nccc(-c2[nH]c(-c3ccccc3)nc2-c2ccc(Cl)c(O)c2)n1)c1ccc(Br)cc1	Fulfilled
CS(=O)(=O)Nc1cc(-c2ccc3ncc(C#N)c(Nc4cccc(Cl)c4F)c3c2)cnc1Cl	Fulfilled

Now consider the entry below.
is_below(growth, 30%) for "Cc1ccc(-c2nn(-c3ccccc3)cc2/C=C/C(=O)c2ccc(NC(=O)CCCCCCC(=O)NO)cc2)cc1" ?
Not fulfilled

====

test system: HS 578T breast; assay: NCI-60 one-dose screen, 48 h (100 = growth as untreated, 0 = no growth, -100 = all killed); conditions: 10 µM unless noted
The panel holds about 83,000 compounds, 20% with a hit somewhere; the sample as a whole holds those more often. Activity calls are given as the source filed them. How the source made its calls: active means growth percent below 10; inactive means the rest.
growth listing for selected molecules.

Cn1cc(-c2nc(N)nnc2-c2c[nH]c3ccc(Br)cc23)c2cc(Br)ccc21	76.7% (inactive)
Clc1cccc(/C=N/Nc2nc(N/N=C/c3cccc(Cl)c3Cl)nc(N3CCCCC3)n2)c1Cl	85% (inactive)
O=S(=O)(NCCCNc1nccc(-n2cnc3ccccc32)n1)c1ccc(C(F)(F)F)cc1	78.3% (inactive)

response.value for "Cn1ccnc1C(=O)/C=C/c1ccc(CNC(=O)c2ccc(S(F)(F)(F)(F)F)cc2)cc1" (field: growth) = 23% (inactive)

response.value for "CC1(C)CC[C@]2(C(=O)N3CCOCC3)CC[C@]3(C)C(=CC[C@@H]4[C@@]5(C)C/C(=C/c6ccccn6)C(=O)C(C)(C)[C@@H]5CC[C@]43C)[C@@H]2C1" (field: growth) = 81.6% (inactive)

response.value for "COC(=O)c1ccc(NC2=C/C(=N/S(=O)(=O)c3ccc(C(=O)O)cc3)c3ccccc3C2=O)cc1" (field: growth) = -13.6% (active)

response.value for "NS(=O)(=O)c1ccc(-n2cc(-c3cccc(NC(=O)c4ccc(N5CCOCC5)c(C(F)(F)F)c4)c3)nn2)cc1" (field: growth) = 48.9% (inactive)

response.value for "C=C(C)[C@@H]1CC[C@]2(C(=O)NCCCCCN(CCC#N)CCC#N)CC[C@]3(C)[C@H](CC[C@@H]4[C@@]5(C)CCC(=O)C(C)(C)[C@@H]5CC[C@]43C)[C@@H]12" (field: growth) = 103% (inactive)

response.value for "O=C1CCCc2nc(Nc3ccc(S(=O)(=O)Nc4ccc([N+](=O)[O-])cc4)cc3)ncc21" (field: growth) = 98.4% (inactive)

response.value for "CS(=O)(=O)Nc1cc(-c2ccc3ncc(C#N)c(N[C@H](CO)c4ccccc4)c3c2)cnc1Cl" (field: growth) = 13.7% (inactive)

response.value for "CCn1c(SCC(=O)Nc2cccc(C(=O)/C=C/c3ccc(Br)cc3)c2)nc2ccccc2c1=O" (field: growth) = 98.3% (inactive)

response.value for "COc1cccc(C(=O)Nc2cccc(C#Cc3cccc4[nH]nc(N)c34)c2)c1" (field: growth) = 66.4% (inactive)

====

test system: MOLT-4 leukemia; assay: NCI-60 one-dose screen, 48 h (100 = growth as untreated, 0 = no growth, -100 = all killed); conditions: 10 µM unless noted
This is part of a sample that, as a whole, favours compounds with a hit. Of some 83,000 tested, about 20% had one in any assay.
Measured Attribute: growth (%)
Dear colleague, please return just the value in %, with no unit written.

Field: example entries. Status: answers known.
COc1ccc(-c2nn(-c3ccc(S(C)(=O)=O)cc3)cc2/C=N/O)cc1	103
CCNC(=O)Oc1ccc(/C(=C(/C)c2ccccc2)c2ccc(OCCN3CCCCCC3)cc2)cc1	2.51
O=C(NNc1nc2cc(F)ccc2n2c(CO)ccc12)c1cnccn1	2.51
N/C(=N\C(N)=N\c1nc2ccccc2s1)c1ccc(C(F)(F)F)cc1	68.6
COc1ccc(/C(N)=N/C(N)=N/c2nc3ccccc3s2)cc1	74.6

response.value for "C=CCn1c(SCC(=O)Nc2ccc(C(=O)/C=C/c3ccc(Cl)cc3)cc2)nnc1-c1c[nH]c2ccccc12" (field: growth) = 66.4

response.value for "CS(=O)(=O)Nc1cc(-c2ccc3ncc(C#N)c(NCc4ccccc4F)c3c2)cnc1Cl" (field: growth) = -15.8

response.value for "COc1ccccc1-n1cc(C#N)c(N)c1C(=O)c1ccc(C)cc1" (field: growth) = 83.1

response.value for "COc1ccc2c(c1)c(-c1cc(N)n3nc(-c4cn(C)c5ccc(OC)cc45)cc3n1)cn2C" (field: growth) = 56.1

response.value for "CC[C@@H](CO)Nc1ccc2ncc(C#Cc3cncc(C(=O)Nc4ccc(CN5CCN(C)CC5)c(C(F)(F)F)c4)c3)n2n1" (field: growth) = 3.44

response.value for "O=c1[nH]c(Sc2sc3ccc(Cl)cc3c2CBr)nc(=S)[nH]1" (field: growth) = 17.5

====

growth listing for selected molecules.
tested on: HCT-116 colon; assay: NCI-60 one-dose screen, 48 h (100 = growth as untreated, 0 = no growth, -100 = all killed); conditions: 10 µM unless noted
About 83,000 compounds went through this panel and 20% of them were active in at least one assay; those are over-represented in the sample as a whole.
Dear colleague, please return just the value in %, with no unit written.

CC(C)(C)CC(C)(C)n1nnnc1C(Nc1nccs1)c1cc2cccc3ccc4cccc1c4c32 (stereo not given)	97.7

response.value for "CC[C@]12C=CCN3CC[C@@]4(c5cc(NC(=O)COc6cc(O)c7c(=O)cc(-c8ccccc8)oc7c6)c(OC)cc5N(C)[C@H]4[C@@](O)(C(=O)OC)[C@@H]1OC(C)=O)[C@@H]32" (field: growth) = -89.2

response.value for C[C@@H]1C[C@H]2C(=O)O[C@@H](C)C(NC(=O)[C@H](Cc3cc(F)cc(F)c3)NC(=O)Nc3ccc(Cl)cc3F)C(=O)N3CCC[C@H]3C(=O)N3CCCC[C@H]3C(=O)N[C@@H](CO)C(=O)N2C1 (stereo not given in full) (field: growth) = 9.85

response.value for "COc1cc(OC)c(/C=C/S(=O)(=O)Cc2ccc(OC)c(NC(=O)CCC(=O)NO)c2)c(OC)c1" (field: growth) = 3.5

response.value for "NC(N)=Nc1ccc(Oc2cccc(NC(N)=Nc3ccc(Br)c(C(F)(F)F)c3)c2)cc1" (field: growth) = 42.9

response.value for "CCn1c(SCC(=O)Nc2cccc(C(=O)/C=C/c3ccccc3Cl)c2)nc2ccccc2c1=O" (field: growth) = -26.3

response.value for "CCCCCc1ccc(S(=O)(=O)Nc2cccc(-c3csc(NCCN4CCN(C)CC4)n3)c2)cc1" (field: growth) = 4.07

response.value for CCCn1cnc2c(c1=N)C(c1ccc(OC)cc1)c1sc3c(C)cccc3c1O2 (stereo not given) (field: growth) = 6.27

response.value for "CCc1cccc(NC(=O)CNc2cc(S(=O)(=O)N(C)C)cc(C)c2C)c1" (field: growth) = 91.3

response.value for "O=C(CSc1nnc(-c2ccc3nc(-c4ccccc4)[nH]c3c2)o1)Nc1ccc(C(=O)/C=C/c2ccccc2)cc1" (field: growth) = 97

response.value for "NC(N)=Nc1ccc(Oc2cccc(NC(N)=Nc3ccc(I)cc3F)c2)cc1" (field: growth) = 90.5

response.value for C=C(C=O)[C@@H]1CC[C@]2(COC(C)=O)CC[C@]3(C)C(CC[C@@H]4[C@@]5(C)CC[C@H](OC(C)=O)C(C)(C)[C@@H]5CC[C@]43C)[C@@H]12 (stereo not given in full) (field: growth) = -58.4

====

system: OVCAR-3 ovarian; assay: NCI-60 one-dose screen, 48 h (100 = growth as untreated, 0 = no growth, -100 = all killed); conditions: 10 µM unless noted
This is part of a sample that, as a whole, favours compounds with a hit. Of some 83,000 tested, about 20% had one in any assay.
// NB: equality with 90% counts as f; only growth strictly below is t

COc1cc(/C=C2\C(=O)Nc3cc(Cl)ccc32)ccc1OCc1ccc(F)cc1	f
CCC1=Cc2cc(OC)ccc2OC12C=Cc1cc(OC)ccc1O2 (configuration not stated)	t
COc1cc2nc(Cl)nc(Nc3cccc(C4=Nc5c(N)nc(N)nc5NC(c5ccc(F)cc5)C4)c3)c2cc1OC (configuration not stated)	t
O=C1CCC(N2C(=O)c3ccc(NS(=O)(=O)c4ccccc4OC(F)(F)F)cc3C2=O)C(=O)N1 (configuration not stated)	t
O=S(=O)(NCCNc1nccc(-n2cnc3ccccc32)n1)c1ccc(C(F)(F)F)cc1	t

is_below(growth, 90%) for "CC1=NC2=NC(=O)/C(=C3/N=C(C)C=C(c4ccccc4)N3N)NN2C(c2ccccc2)=C1" ?
f

is_below(growth, 90%) for CC(=O)C1=C(C)NC(NNC(N)=S)=NC1c1ccccc1 (configuration not stated) ?
f

is_below(growth, 90%) for "Cc1ccc(-n2cc(/C=C/C(=O)c3ccc(O)cc3)c(-c3ccc(S(C)(=O)=O)cc3)n2)cc1" ?
t

is_below(growth, 90%) for COc1c(N2CC3CCCNC3C2)c(F)cc2c(=O)c(C(=O)N/N=C/c3ccccc3)cn(C3CC3)c12 (configuration not stated) ?
f

is_below(growth, 90%) for COc1ccc(C2CC(c3cccc(Nc4nc(Cl)nc5cc(OC)c(OC)cc45)c3)=Nc3c(N)nc(N)nc3N2)cc1 (configuration not stated) ?
t

is_below(growth, 90%) for "COc1cc(-c2nc(SCCC(C)C)nc(NNC(=O)c3ccncc3)c2C#N)cc(OC)c1OC" ?
t

is_below(growth, 90%) for "O=C(NCc1ncc[nH]1)c1ccc(-c2nc3ccc4[nH]ncc4c3c3c2CCCC3)cc1" ?
t

is_below(growth, 90%) for CCOC(=O)C1=NNC(c2ccc(Cl)cc2)C1C(=O)N1C(=S)NC(=O)C1CC(C)C (configuration not stated) ?
f

is_below(growth, 90%) for "O=C1[C@H]2Cc3c([nH]c4ccccc34)[C@@H](c3ccc(Cl)cc3)N2C(=O)CN1C1CCN(Cc2ccccc2)CC1" ?
t

is_below(growth, 90%) for "O=S(=O)(NCCCNc1nccc(-n2cnc3ccccc32)n1)c1ccc(C(F)(F)F)cc1" ?
f

is_below(growth, 90%) for "Cc1ccc(-c2cc3nc(C(Cl)Cl)nc(-c4ccco4)n3n2)cc1" ?
t

is_below(growth, 90%) for "CS(=O)(=O)c1ccc(-c2nn(-c3ccccc3)cc2/C=N/NC(=O)c2nc(N)n[nH]2)cc1" ?
f

is_below(growth, 90%) for "CCCCCc1ccc(S(=O)(=O)Nc2cc(-c3csc(NC(=O)CN4CCN(C)CC4)n3)ccc2OC)cc1" ?
t

is_below(growth, 90%) for "CNC(=O)c1cc(-c2ccc(NS(=O)(=O)c3ccc(C)cc3)cc2)nc2cccnc12" ?
f

is_below(growth, 90%) for "ClC(Cl)c1nc(-c2ccco2)n2nc(-c3ccccc3)cc2n1" ?
t

is_below(growth, 90%) for "C#Cc1nc(C(C)=O)cs1" ?
f

is_below(growth, 90%) for "C#C[C@]1(O)CC[C@H]2[C@@H]3CC=C4c5sc(-c6cccc(O)c6)nc5CC[C@]4(C)[C@H]3CC[C@@]21C" ?
t

is_below(growth, 90%) for "C=C(C)[C@@H]1CC[C@]2(C(=O)NCCCCCN(CCC#N)CCC#N)CC[C@]3(C)[C@H](CC[C@@H]4[C@@]5(C)CCC(=O)C(C)(C)[C@@H]5CC[C@]43C)[C@@H]12" ?
f

Source: PubChem BioAssay (NCI)
